target: recombinant human GST-SYK (Homo sapiens, UniProt P43405); construct: purchased Carna Biosciences 08-176; assay: Homogeneous Time-Resolved Fluorescence (HTRF) assay for the recombinant human Syk enzyme; format: biochemical; settings: GST-hSYK 5 pM, ATP 25 μM, IC50 rated in classes, read-out: rhSYK Activity
property-measured: IC50

Recorded results for 2 compounds are shown here.
compound: Cc1cc(Nc2nccc(C(F)(F)F)n2)cc(-c2cnc(NC(CO)C(=O)O)nc2)c1 (racemic)
tgt: recombinant human GST-SYK (Homo sapiens, UniProt P43405)
IC50: < 100 nM

compound: Cc1cc(Nc2nccc(C(F)(F)F)n2)cc(-c2ccnnc2)c1
tgt: recombinant human GST-SYK (Homo sapiens, UniProt P43405)
IC50: 100 to 1000 nM

Q: What value of IC50 has been reported for the following compound? "Cc1cc(Nc2nccc(C(F)F)n2)cc(-c2cnc(C[C@H]3CC[C@H](C(=O)O)CC3)nc2)c1"
Result: < 100 nM

Q: What value of IC50 has been reported for the following compound? "CCOC(=O)CCc1cncc(-c2cccc(Nc3nccc(C(F)(F)F)n3)c2)n1"
Result: 1000 to 10000 nM
